Test Name: NCI Yeast Anticancer Drug Screen. Data for the rad50 strain (AID 155);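 further: 0% = growth of vehicle-only cultures of the same strain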
Experimental Conditions: S. cerevisiae rad50 strain growth inhibition; at 50.0 µM (retest, dose inferred, filed as 5.0); active compounds read high
Experimental: Growth inhibition of yeast strains with defined genetic alterations is measured as a screen for potential anti-cancer activity. Selected strains with alterations in DNA damage repair or cell cycle control were exposed to compounds and growth inhibition was measured relative to vehicle treated controls. The strain used in this assay is rad50
Compounds without any hit were thinned out: in the full panel of roughly 79,000, 15% have a hit.
Consider the following compounds; for each one, report its growth inhibition.
One number for each entry, in %.

{"Compound": "CCCCS.[Hg]", "growth inhibition / %": 94}
{"Compound": "CCOP(=S)(OCC)OC(c1ccc(Cl)cc1)c1ccc(Cl)cc1", "growth inhibition / %": -11}
{"Compound": "CCC[CH2][Sn]1([CH2]CCC)[S]CC[N]1S(=O)(=O)c1ccc(C)cc1", "growth inhibition / %": 98}
{"Compound": "CCNC(=O)O/N=C1/C=C2CC[C@@H]3C(CC[C@@]4(C)C3CC[C@@H]4OC(=O)NCC)[C@@]2(C)CC1 (stereo partly specified)", "growth inhibition / %": 66}
{"Compound": "O=C1OC2C(O1)C1(Cl)C(Cl)=C(Cl)C2(Cl)C1(Cl)Cl (stereo unspecified)", "growth inhibition / %": 41}
{"Compound": "CCc1ccc2c(c1)N(CCCN(CCCl)CCCl)c1ccccc1S2", "growth inhibition / %": 85}
{"Compound": "NCC(O)c1cccc(O)c1 (stereo unspecified)", "growth inhibition / %": 77}
{"Compound": "C/C=C(\\C)C(=O)OC1C(C)=C2C(C1OC(=O)CCCCC)C(C)(OC(C)=O)CC(OC(=O)CCC)C1(O)C2OC(=O)C1(C)O (stereo unspecified)", "growth inhibition / %": 85}

List growth inhibition for every entry below, keeping the order given.
1. CCCCN(C)CC(C(C)=O)C(c1ccccc1)c1c(O)c2ccccc2oc1=O (stereo unspecified)
2. Oc1cccc[c]1[Hg][Cl]

1: 32; 2: 99

Annotate the compound O=C(CCl)c1ccc(O)cc1 with its measured growth inhibition.
96
